# protocolDescription: in vitro
# recordedConditions: human, Caco-2
propertyMeasured: Papp B→A at 120 min

INSERT INTO measurements (compoundstructure, result) VALUES
  ('C[C@H]1COC2(CCN(c3nc(=O)c4cc(C(F)(F)F)cc([N+](=O)[O-])c4s3)CC2)O1', '6.9 to 12.9 ×10⁻⁶ cm/s');

###

# protocolDescription: In vitro permeability assay in Caco-2 monolayers
# recordedConditions: human, Caco-2, Mean Papp, Caco-2, 40 µg/mL, direction AB, n=3
propertyMeasured: Papp at 120 min, 40 µg/mL

INSERT INTO results (compound, result) VALUES
  ('NC(=O)c1cnccn1 [PZA, pyrazinamide]', '61 ×10⁻⁶ cm/s');
